The origin of these recorded values is patent US10947242B2.

target: Human recombinant PDE10A (hPDE10A) (Homo sapiens, UniProt Q9Y233)
Construct: His tag (inferred from metal chelate purification); made in house; host or cells: Sf9 insect cells (baculovirus)
Sequence (Q9Y233 267-1055): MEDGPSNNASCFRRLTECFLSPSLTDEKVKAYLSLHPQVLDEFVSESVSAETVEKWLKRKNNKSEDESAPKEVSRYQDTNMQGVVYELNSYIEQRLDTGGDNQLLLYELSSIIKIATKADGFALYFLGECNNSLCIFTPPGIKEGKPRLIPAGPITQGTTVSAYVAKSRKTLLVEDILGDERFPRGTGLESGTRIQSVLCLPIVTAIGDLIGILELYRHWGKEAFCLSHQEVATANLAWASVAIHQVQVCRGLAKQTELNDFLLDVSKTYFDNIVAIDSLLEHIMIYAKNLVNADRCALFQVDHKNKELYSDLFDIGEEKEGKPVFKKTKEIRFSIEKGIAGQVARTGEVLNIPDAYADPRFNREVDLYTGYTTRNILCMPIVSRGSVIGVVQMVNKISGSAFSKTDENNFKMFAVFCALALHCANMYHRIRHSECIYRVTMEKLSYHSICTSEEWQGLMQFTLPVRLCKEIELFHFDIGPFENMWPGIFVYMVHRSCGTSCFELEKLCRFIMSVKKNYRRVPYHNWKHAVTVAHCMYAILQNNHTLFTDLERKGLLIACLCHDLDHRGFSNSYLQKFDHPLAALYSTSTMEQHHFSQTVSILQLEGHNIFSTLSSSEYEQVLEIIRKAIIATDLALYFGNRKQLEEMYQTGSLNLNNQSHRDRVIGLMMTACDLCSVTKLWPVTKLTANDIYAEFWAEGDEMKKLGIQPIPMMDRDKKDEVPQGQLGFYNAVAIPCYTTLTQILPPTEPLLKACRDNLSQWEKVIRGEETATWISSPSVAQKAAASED
protocolNotes: In vitro assay PDE10A, human clone (SPA, 3H-cAMP hydrolysis)
Format: biochemical
conditionDetails: human clone (h), default; read-out: hPDE10A2 pIC50 (converted)
propertyMeasured: IC50 (nM)

Before answering, review these 5 worked examples.
> print(dat)
                                   compound  datavalue
1  COc1cc(C(=O)N2CC[C@@H](C)[C@H](c3cc(C)nc4ncnn34)C2)c(C(F)(F)F)cn1 [Compound 37]        427
2  Cc1cc(C(=O)N2CC[C@@H](C)[C@H](c3cc(C(F)F)nc4ncnn34)C2)cc(C(C)C)n1 [Compound 101]       57.5
3  Cc1c(C(=O)N2[C@H]3CC[C@H](c4cc(C(F)F)nc5ncnn45)[C@@H]2CC3)oc2ccccc12 [Compound 273]        977
4  CCCC[C@@H]1CCN(C(=O)c2cc(C)nc(C)c2)C[C@H]1c1cc(C(F)F)nc2ncnn12 (mixture of isomers) [Compound 44]       2570
5  Cc1cc(C(=O)N2C3CCC2[C@@H](c2cc(C(F)F)nc4ncnn24)CC3)cc(C2CC2)n1 (stereo partly shown) [Compound 28]        447

[1] CC(C)Oc1cc(C(=O)N2CC[C@@H](C)[C@H](c3cc(C(F)F)nc4ncnn34)C2)cc(C(C)C)c1 [Compound 144]
[2] C[C@@H]1CCN(C(=O)c2c(F)cccc2F)C[C@H]1c1cc(C(F)F)nc2ncnn12 [Compound 149]
Asked: # argmax over IC50 for candidates 1 and 2 Reply briefly: the label of your chosen item.
Given back: 2
